These entries and their values trace back to patent US8026218.

# target-system: human δ opioid receptor (human) (UniProt P41143)
# Sequence (P41143 whole entry, stated change not applied): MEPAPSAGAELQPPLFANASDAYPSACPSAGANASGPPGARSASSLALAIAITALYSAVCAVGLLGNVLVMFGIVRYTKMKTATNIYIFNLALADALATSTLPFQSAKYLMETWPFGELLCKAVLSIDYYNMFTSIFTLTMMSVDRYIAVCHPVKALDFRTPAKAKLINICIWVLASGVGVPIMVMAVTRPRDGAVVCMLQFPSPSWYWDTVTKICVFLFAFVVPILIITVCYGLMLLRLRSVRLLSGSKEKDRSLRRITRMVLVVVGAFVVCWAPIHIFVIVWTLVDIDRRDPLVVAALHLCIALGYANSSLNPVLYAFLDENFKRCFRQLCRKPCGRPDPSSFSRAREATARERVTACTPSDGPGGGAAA
# experiment-notes: radioligand competition vs [3H]DPDPE, membranes of hDOR cells
Bridge positions count the residues as written; N and C are the ends. Square brackets hold non-standard residues; d marks the D form. Ends that are not written are not given here. * marks the point of attachment. NH(3,5-(CF3)2-benzyl) = FC(F)(F)c1cc(CN*)cc(C(F)(F)F)c1; NH‑Bn(CF3)2 = C-terminal Bn(CF3)2 amide; dPen = CC(C)(S)[C@@H](N)C(=O)O; Pen = CC(C)(S)[C@H](N)C(=O)O; Nle = CCCC[C@H](N)C(=O)O
Assign Ki to each entry below.

{"columns": ["binder", "Ki"],
 "data": [
  ["Y[dC]GF[Nle]P[dC]W-{NH(3,5-(CF3)2-benzyl)} (disulfide 2-7) [Tyr[DCysGlyPheNleProDCys]TrpNHBn(CF3)2 (TY038)]", "55.5 nM"]
]}

Field: next binder
What measured Ki goes with Y[dPen]GF[Nle]P[Pen]W-{NH‑Bn(CF3)2} (disulfide 2-7) [Tyr[DPenGlyPheNleProPen]TrpNHBn(CF3)2 (TY047)] ?
152 nM
